Entry source: patent US7135466B2

- studySystem: human KDR (Homo sapiens)
- Construct: expressed in transfected cells; host or cells: NIH 3T3 cells
- Sequence (P35968 20-1356): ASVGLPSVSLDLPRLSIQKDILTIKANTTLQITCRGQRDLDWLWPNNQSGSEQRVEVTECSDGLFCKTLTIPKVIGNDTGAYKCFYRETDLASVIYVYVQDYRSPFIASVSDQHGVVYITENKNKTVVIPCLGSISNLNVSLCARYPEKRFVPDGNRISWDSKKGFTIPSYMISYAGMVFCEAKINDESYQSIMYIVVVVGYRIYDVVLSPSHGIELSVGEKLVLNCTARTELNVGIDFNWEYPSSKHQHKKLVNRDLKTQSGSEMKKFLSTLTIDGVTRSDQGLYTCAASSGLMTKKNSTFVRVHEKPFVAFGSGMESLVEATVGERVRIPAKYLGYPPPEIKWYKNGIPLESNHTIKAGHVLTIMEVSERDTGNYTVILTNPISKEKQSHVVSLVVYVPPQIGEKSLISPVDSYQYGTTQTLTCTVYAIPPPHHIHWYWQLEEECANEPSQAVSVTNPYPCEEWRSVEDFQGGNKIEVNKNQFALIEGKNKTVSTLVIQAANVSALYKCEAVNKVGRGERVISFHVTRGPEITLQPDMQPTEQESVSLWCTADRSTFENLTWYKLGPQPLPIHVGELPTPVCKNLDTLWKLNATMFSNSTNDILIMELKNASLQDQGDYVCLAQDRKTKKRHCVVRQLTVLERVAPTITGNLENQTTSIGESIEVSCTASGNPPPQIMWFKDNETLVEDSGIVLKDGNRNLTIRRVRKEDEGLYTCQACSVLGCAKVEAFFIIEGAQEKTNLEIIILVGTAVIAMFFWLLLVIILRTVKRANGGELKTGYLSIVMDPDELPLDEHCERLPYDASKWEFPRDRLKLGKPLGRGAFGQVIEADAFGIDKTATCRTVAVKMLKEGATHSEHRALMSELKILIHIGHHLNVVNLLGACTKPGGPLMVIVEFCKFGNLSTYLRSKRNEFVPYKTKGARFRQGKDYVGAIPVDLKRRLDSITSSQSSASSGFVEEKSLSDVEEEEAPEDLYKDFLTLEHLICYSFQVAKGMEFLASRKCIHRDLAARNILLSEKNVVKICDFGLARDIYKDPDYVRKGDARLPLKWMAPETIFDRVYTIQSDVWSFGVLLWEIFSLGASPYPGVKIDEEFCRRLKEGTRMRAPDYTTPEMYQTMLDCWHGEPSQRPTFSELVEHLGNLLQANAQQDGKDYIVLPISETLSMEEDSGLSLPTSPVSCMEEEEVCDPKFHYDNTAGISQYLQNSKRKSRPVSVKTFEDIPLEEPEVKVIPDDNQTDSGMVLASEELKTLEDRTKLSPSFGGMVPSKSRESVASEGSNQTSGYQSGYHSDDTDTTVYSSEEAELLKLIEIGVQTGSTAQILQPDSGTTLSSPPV
- assayOverview: Inhibitory activity against KDR phosphorylation (NIH 3T3 cells transfected with human KDR, VEGF)
- Assay type: cell-based
- measurementParameters: VEGF 100 ng/ml
recordedEndpoint: IC50

Specify reported IC50 for the molecule shown: `CCN(CC)CCNC(=S)Nc1ccc(Oc2ncnc3cc(OC)c(OC)cc23)cc1` > 1000 nM

Specify reported IC50 for the molecule shown: `COc1cc2nccc(Oc3ccc(NC(=O)NC4CCN(Cc5ccccc5)CC4)cc3)c2cc1OC` > 1000 nM

Specify reported IC50 for the molecule shown: `COc1cc2ncnc(Oc3ccc(NC(=O)N[C@H]4CCN(Cc5ccccc5)C4)cc3)c2cc1OC` > 1000 nM
